Target: carboxyl terminal domain (CT) of Cx43 (Rattus norvegicus, UniProt P08050)
Construct: GST (N, cleaved yes); made in house; host or cells: E. coli BL-21
Sequence (P08050 255-382): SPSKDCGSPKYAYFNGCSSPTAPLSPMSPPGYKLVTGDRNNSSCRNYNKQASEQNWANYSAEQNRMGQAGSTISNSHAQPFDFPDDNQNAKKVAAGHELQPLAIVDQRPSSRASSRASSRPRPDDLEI
Assay: Peptide binding to Cx43CT determined using surface plasmon resonance (SPR)
Settings: peptide 250 uM; immobilised recombinant Cx43CT
Entries and their SPR respons values follow.
Your answer is read as arbitrary units, so omit the unit and give the number.

| substance | assay-target | SPR respons (arbitrary units) |
| --- | --- | --- |
| Ac-Arg-Arg-Asn-Tyr-Gly-Gly-Gly-Arg-Arg-Asn-Tyr-NH2 (Ac-RRNYGGGRRNY-NH2) [Compound 2509] | carboxyl terminal domain (CT) of Cx43 (Rattus norvegicus, UniProt P08050) | 148.5 |
| Ac-Arg-Arg-Asn-Tyr-Arg-Arg-Asn-Tyr-NH2 (Ac-RRNYRRNY-NH2) [Compound 2497] | carboxyl terminal domain (CT) of Cx43 (Rattus norvegicus, UniProt P08050) | 201.5 |

The substance listed as Ac-Arg-Arg-Asn-Tyr-Gly-Gly-Ser-Ala-Val-Pro-Phe-Tyr-Ser-His-Arg-Arg-Asn-Tyr-NH2 (Ac-RRNYGGSAVPFYSHRRNY-NH2) [Compound 2510] shows SPR respons equal to 331.5

---

Molecular target: carboxyl terminal domain (CT) of Cx43 (Rattus norvegicus, UniProt P08050)
Construct: GST (N, cleaved yes); made in house; host or cells: E. coli BL-21
Assay: Peptide binding to Cx43CT determined using surface plasmon resonance (SPR)
Details: peptide 500 uM; immobilised recombinant Cx43CT
Entries and their SPR respons values follow.
Your answer is read as arbitrary units, so omit the unit and give the number.

Study these solved cases before continuing.
| substance | measure-unit | SPR respons |
| --- | --- | --- |
| Ac-Arg-Arg-Asn-Tyr-Gly-Gly-Gly-Ser-Ala-Val-Pro-Phe-Tyr-Arg-Arg-Asn-Tyr-NH2 (Ac-RRNYGGGSAVPFYRRNY-NH2) [Compound 2508] | arbitrary units | 546.8 |
| Ac-Arg-Arg-Asn-Tyr-Val-Pro-Arg-Arg-Asn-Tyr-NH2 (Ac-RRNYVPRRNY-NH2) [Compound 2512] | arbitrary units | 227.3 |
| Ac-Arg-Arg-Asn-Tyr-Gly-Gly-Ser-Ala-Val-Pro-Phe-Tyr-Ser-His-Arg-Arg-Asn-Tyr-NH2 (Ac-RRNYGGSAVPFYSHRRNY-NH2) [Compound 2510] | arbitrary units | 643.3 |

The substance listed as Ac-Arg-Arg-Asn-Tyr-Gly-Gly-Gly-Arg-Arg-Asn-Tyr-NH2 (Ac-RRNYGGGRRNY-NH2) [Compound 2509] shows SPR respons equal to 280.8

The substance listed as Ac-Arg-Arg-Asn-Tyr-Arg-Arg-Asn-Tyr-NH2 (Ac-RRNYRRNY-NH2) [Compound 2497] shows SPR respons equal to 327.5

The substance listed as Ac-Arg-Arg-Asn-Tyr-Ala-Val-Pro-Phe-Arg-Arg-Asn-Tyr-NH2 (Ac-RRNYAVPFRRNY-NH2) [Compound 2511] shows SPR respons equal to 389.6

The substance listed as Ac-Arg-Arg-Asn-Tyr-Ser-His-Ser-Arg-Arg-Asn-Tyr-NH2 (Ac-RRNYSHSRRNY-NH2) [Compound 2507] shows SPR respons equal to 438.5

The substance listed as Ac-Tyr-Asn-Arg-Arg-Gly-Gly-Gly-Ser-Ala-Val-Pro-Phe-Tyr-Ser-His-Ser-Tyr-Asn-Arg-Arg-NH2 (Ac-YNRRGGGSAVPFYSHSYNRR-NH2) [Compound 2496] shows SPR respons equal to 738.6

The substance listed as Ac-Arg-Arg-Asn-Tyr-NH2 (Ac-RRNY-NH2) [Compound 2498] shows SPR respons equal to 50.9

The substance listed as Ac-Arg-Arg-Asn-Tyr-Ser-Ala-Val-Pro-Phe-Tyr-Ser-His-Ser-Arg-Arg-Asn-Tyr-NH2 (Ac-RRNYSAVPFYSHSRRNY-NH2) [Compound 2506] shows SPR respons equal to 561.8

---

Molecular target: carboxyl terminal domain (CT) of Cx43 (Rattus norvegicus, UniProt P08050)
Construct: GST (N, cleaved yes); made in house; host or cells: E. coli BL-21
Assay: Peptide binding to Cx43CT determined using surface plasmon resonance (SPR)
Conditions: peptide 1 mM; immobilised recombinant Cx43CT
Entries and their log10(SPR respons) values follow.
Friendly reminder: values = log10 of SPR respons, unit arbitrary units.

Study these solved cases before continuing.
| substance | log10(SPR respons) |
| --- | --- |
| Ac-Arg-Arg-Asn-Tyr-Gly-Gly-Gly-Ser-Ala-Val-Pro-Phe-Tyr-Arg-Arg-Asn-Tyr-NH2 (Ac-RRNYGGGSAVPFYRRNY-NH2) [Compound 2508] | 3.01 |
| Ac-Arg-Arg-Asn-Tyr-Ser-Ala-Val-Pro-Phe-Tyr-Ser-His-Ser-Arg-Arg-Asn-Tyr-NH2 (Ac-RRNYSAVPFYSHSRRNY-NH2) [Compound 2506] | 3.07 |

The substance listed as Ac-Arg-Arg-Asn-Tyr-Arg-Arg-Asn-Tyr-NH2 (Ac-RRNYRRNY-NH2) [Compound 2497] shows log10(SPR respons) equal to 2.75

The substance listed as Ac-Arg-Arg-Asn-Tyr-Ala-Val-Pro-Phe-Arg-Arg-Asn-Tyr-NH2 (Ac-RRNYAVPFRRNY-NH2) [Compound 2511] shows log10(SPR respons) equal to 2.84

The substance listed as Ac-Tyr-Asn-Arg-Arg-Gly-Gly-Gly-Ser-Ala-Val-Pro-Phe-Tyr-Ser-His-Ser-Tyr-Asn-Arg-Arg-NH2 (Ac-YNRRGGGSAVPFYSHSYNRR-NH2) [Compound 2496] shows log10(SPR respons) equal to 3.15

The substance listed as Ac-Arg-Arg-Asn-Tyr-Gly-Gly-Ser-Ala-Val-Pro-Phe-Tyr-Ser-His-Arg-Arg-Asn-Tyr-NH2 (Ac-RRNYGGSAVPFYSHRRNY-NH2) [Compound 2510] shows log10(SPR respons) equal to 3.07

The substance listed as Ac-Arg-Arg-Asn-Tyr-NH2 (Ac-RRNY-NH2) [Compound 2498] shows log10(SPR respons) equal to 1.96

---

Target: carboxyl terminal domain (CT) of Cx43 (Rattus norvegicus, UniProt P08050)
Construct: GST (N, cleaved yes); made in house; host or cells: E. coli BL-21
Experiment: Peptide binding to Cx43CT determined using surface plasmon resonance (SPR)
Conditions: peptide 25 uM; immobilised recombinant Cx43CT
Method: 277(39):36706-36714 (2002), which is hereby incorporated by reference in its entirety. Briefly, cDNA derived from rat Cx43 was inserted into pGEX-6P-2 (Amersham) and expressed in E. coli (BL-21). The resultant GST-fusion protein was cleaved from the GST PreScission Protease® (Amersham Biosciences). […] Protein concentration was measured using the Bio-Rad DC Protein Assay. Protein purity was assessed by SDS-PAGE. […]
Entries and their SPR respons values follow.

Study these solved cases before continuing.
| substance | assay-target | reported-measurement |
| --- | --- | --- |
| Ac-Arg-Arg-Asn-Tyr-Ser-Ala-Val-Pro-Phe-Tyr-Ser-His-Ser-Arg-Arg-Asn-Tyr-NH2 (Ac-RRNYSAVPFYSHSRRNY-NH2) [Compound 2506] | carboxyl terminal domain (CT) of Cx43 (Rattus norvegicus, UniProt P08050) | 51.7 arbitrary units |
| Ac-Tyr-Asn-Arg-Arg-Gly-Gly-Gly-Ser-Ala-Val-Pro-Phe-Tyr-Ser-His-Ser-Tyr-Asn-Arg-Arg-NH2 (Ac-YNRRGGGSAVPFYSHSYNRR-NH2) [Compound 2496] | carboxyl terminal domain (CT) of Cx43 (Rattus norvegicus, UniProt P08050) | 67.7 arbitrary units |
| Ac-Arg-Arg-Asn-Tyr-Gly-Gly-Gly-Arg-Arg-Asn-Tyr-NH2 (Ac-RRNYGGGRRNY-NH2) [Compound 2509] | carboxyl terminal domain (CT) of Cx43 (Rattus norvegicus, UniProt P08050) | 21.5 arbitrary units |

The substance listed as Ac-Arg-Arg-Asn-Tyr-Gly-Gly-Ser-Ala-Val-Pro-Phe-Tyr-Ser-His-Arg-Arg-Asn-Tyr-NH2 (Ac-RRNYGGSAVPFYSHRRNY-NH2) [Compound 2510] shows SPR respons equal to 40.3 arbitrary units

The substance listed as Ac-Arg-Arg-Asn-Tyr-Arg-Arg-Asn-Tyr-NH2 (Ac-RRNYRRNY-NH2) [Compound 2497] shows SPR respons equal to 30.2 arbitrary units

The substance listed as Ac-Arg-Arg-Asn-Tyr-Ala-Val-Pro-Phe-Arg-Arg-Asn-Tyr-NH2 (Ac-RRNYAVPFRRNY-NH2) [Compound 2511] shows SPR respons equal to 16.2 arbitrary units

The substance listed as Ac-Arg-Arg-Asn-Tyr-Val-Pro-Arg-Arg-Asn-Tyr-NH2 (Ac-RRNYVPRRNY-NH2) [Compound 2512] shows SPR respons equal to 14.8 arbitrary units

The substance listed as Ac-Arg-Arg-Asn-Tyr-Gly-Gly-Gly-Ser-Ala-Val-Pro-Phe-Tyr-Arg-Arg-Asn-Tyr-NH2 (Ac-RRNYGGGSAVPFYRRNY-NH2) [Compound 2508] shows SPR respons equal to 31.1 arbitrary units

The substance listed as Ac-Arg-Arg-Asn-Tyr-Ser-His-Ser-Arg-Arg-Asn-Tyr-NH2 (Ac-RRNYSHSRRNY-NH2) [Compound 2507] shows SPR respons equal to 42.3 arbitrary units
